In this section we review reported EC50 values for a set of compounds.
Target: hSTING(R232) (Homo sapiens, UniProt Q86WV6, H232R)
Sequence (Q86WV6 whole entry H232R): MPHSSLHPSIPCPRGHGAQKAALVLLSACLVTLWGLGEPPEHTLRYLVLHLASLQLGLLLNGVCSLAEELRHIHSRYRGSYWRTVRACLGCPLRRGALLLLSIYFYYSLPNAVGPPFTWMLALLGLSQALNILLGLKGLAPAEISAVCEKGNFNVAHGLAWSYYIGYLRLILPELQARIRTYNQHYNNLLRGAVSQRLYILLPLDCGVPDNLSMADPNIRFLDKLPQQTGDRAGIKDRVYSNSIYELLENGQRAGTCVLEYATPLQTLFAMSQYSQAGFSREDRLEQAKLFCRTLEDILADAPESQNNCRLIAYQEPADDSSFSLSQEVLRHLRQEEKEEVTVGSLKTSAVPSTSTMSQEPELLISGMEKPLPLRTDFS
Assay: Luciferase reporter assay in HEK293T-hSTING-Luciferase cells, R232 (wild type) human STING
Assay type: cell-based
Conditions: 20 hr stimulation, read-out: R232 human activity (EC50 range)

Below are worked cases with known answers.
>  <compound>
COc1cccc(F)c1CN1C(=O)N(C)Cc2ccc(C(=O)NCc3c(F)cc(F)cc3F)cc21 [Example 10]

>  <EC50>
< 1 µM

$$$$
>  <compound>
CN1Cc2ccc(C(=O)NCc3c(F)cc(F)cc3F)cc2N(Cc2cccc(C(N)=O)c2)C1=O [Example 14]

>  <EC50>
1 to 10 µM

$$$$
>  <compound>
COc1cccc(F)c1CN1C(=O)N(C)C(C)c2ccc(C(=O)NCc3c(F)cc(F)cc3F)cc21 (stereo not drawn) [Example 155]

>  <EC50>
1 to 10 µM

$$$$
>  <compound>
CC1c2ccc(C(=O)NCc3cc4ccccc4o3)cc2N(Cc2c(F)cccc2Cl)C(=O)N1C (stereo not drawn) [Example 213]

>  <EC50>
< 1 µM

$$$$
>  <compound>
CC1c2ccc(C(=O)NCc3c(F)cc(F)cc3F)cc2N(Cc2ccc(OCCO)cc2F)C(=O)N1C (stereo not drawn) [Example 230]

>  <EC50>
< 1 µM

$$$$
>  <compound>
CC1c2ccc(C(=O)NCc3c(F)cc(F)cc3F)cc2N(Cc2c(F)cccc2C(F)(F)F)C(=O)N1C (stereo not drawn) [Example 209]

>  <EC50>
< 1 µM

$$$$
>  <compound>
C[C@H]1c2ccc(C(=O)NCc3c(F)cc(F)cc3F)cc2N(Cc2c(OCCO)ccc(F)c2F)C(=O)N1C [Example 254]

>  <EC50>
< 1 µM

$$$$
>  <compound>
CN1Cc2ccc(C(=O)NCc3cc4ccc(F)cc4o3)cc2N(Cc2c(F)cccc2Cl)C1=O [Example 23]

>  <EC50>
1 to 10 µM

$$$$
>  <compound>
C[C@H]1c2ccc(C(=O)NCc3c(F)cc(F)cc3F)cc2N(Cc2ccc(OP(=O)(O)O)cc2F)C(=O)N1C [Example 92]

>  <EC50>
< 1 µM

$$$$
>  <compound>
CC(=O)Nc1ccc(COC(=O)Oc2ccc(F)c(CN3C(=O)N(C)[C@@H](C)c4ccc(C(=O)NCc5c(F)cc(F)cc5F)cc43)c2Cl)cc1 [Example 139]

>  <EC50>
< 1 µM

$$$$

Supply measured EC50 of CC1c2ccc(C(=O)NCc3c(F)cc(F)cc3F)cc2N(Cc2ccccc2)C(=O)N1C (stereo not drawn) [Example 192] in your reply.
< 1 µM

Hello, please tell me recorded EC50 for this one: Cc1cc(CN2C(=O)N(C)C(C)c3ccc(C(=O)NCc4cc5cc(F)ccc5o4)cc32)n(C)n1 (stereo not drawn) [Example 223]
1 to 10 µM
